Source: ChEMBL document CHEMBL1221276

- System: Nitric oxide synthase, inducible (Mus musculus)
- Sequence (P29477 whole entry): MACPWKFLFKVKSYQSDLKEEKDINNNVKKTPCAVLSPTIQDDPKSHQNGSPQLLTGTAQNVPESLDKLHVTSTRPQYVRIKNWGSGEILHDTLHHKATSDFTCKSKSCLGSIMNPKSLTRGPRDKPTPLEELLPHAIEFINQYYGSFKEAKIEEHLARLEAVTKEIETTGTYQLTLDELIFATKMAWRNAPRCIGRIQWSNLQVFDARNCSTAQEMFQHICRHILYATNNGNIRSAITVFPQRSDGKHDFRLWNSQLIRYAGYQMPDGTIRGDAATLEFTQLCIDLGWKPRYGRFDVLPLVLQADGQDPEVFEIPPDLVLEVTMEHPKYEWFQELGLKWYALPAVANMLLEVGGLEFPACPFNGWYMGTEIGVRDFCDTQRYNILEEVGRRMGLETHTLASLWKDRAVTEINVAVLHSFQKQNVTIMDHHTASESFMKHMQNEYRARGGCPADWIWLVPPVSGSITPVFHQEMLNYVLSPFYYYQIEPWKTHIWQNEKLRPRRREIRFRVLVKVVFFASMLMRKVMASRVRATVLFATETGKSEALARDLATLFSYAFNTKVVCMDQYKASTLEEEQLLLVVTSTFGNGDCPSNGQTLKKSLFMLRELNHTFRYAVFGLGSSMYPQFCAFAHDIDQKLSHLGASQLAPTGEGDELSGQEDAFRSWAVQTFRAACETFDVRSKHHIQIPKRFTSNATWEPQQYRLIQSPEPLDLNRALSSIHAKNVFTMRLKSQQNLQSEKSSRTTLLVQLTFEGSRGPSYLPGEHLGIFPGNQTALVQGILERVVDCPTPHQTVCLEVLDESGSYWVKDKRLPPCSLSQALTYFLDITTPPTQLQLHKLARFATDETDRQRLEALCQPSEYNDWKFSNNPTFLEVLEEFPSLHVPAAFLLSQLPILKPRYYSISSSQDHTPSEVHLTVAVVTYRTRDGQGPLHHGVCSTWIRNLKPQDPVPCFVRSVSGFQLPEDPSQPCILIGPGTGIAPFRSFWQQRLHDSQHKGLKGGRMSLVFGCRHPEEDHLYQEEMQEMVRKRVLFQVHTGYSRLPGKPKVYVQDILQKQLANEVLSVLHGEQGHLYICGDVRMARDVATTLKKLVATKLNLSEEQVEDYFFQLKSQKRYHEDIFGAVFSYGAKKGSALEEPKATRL
- Measurement notes: Inhibition of mouse recombinant iNOS expressed in Escherichia coli by hemoglobin capture assay
Assay metric: Ki (µM)
Dear colleague, please return just the value in µM, with no unit written.

>  <Compound>
Cc1cc(N)nc(C[C@@H]2CNC[C@@H]2OCc2ccc(-c3cccc(F)c3)cc2)c1 (racemic)

>  <Ki / µM>
39.5

$$$$

## Task Please give measured Ki of the following entry: Cc1cc(N)nc(C[C@@H]2CNC[C@@H]2OCc2ccc(-c3cccc(Cl)c3)cc2)c1 (racemic)
## Result 55.6

## Task Please give measured Ki of the following entry: Cc1cc(N)nc(C[C@@H]2CNC[C@@H]2OCc2ccc(-c3ccc(F)c(C)c3)cc2)c1 (racemic)
## Result 22.1

## Task Please give measured Ki of the following entry: Cc1cc(N)nc(C[C@@H]2CNC[C@@H]2OCc2ccc(-c3cccc(C(F)(F)F)c3)cc2)c1 (racemic)
## Result 37.3

###

Reported pKi values follow for various compounds
- System: UniProtKB P29476
- Sequence (P29476 whole entry): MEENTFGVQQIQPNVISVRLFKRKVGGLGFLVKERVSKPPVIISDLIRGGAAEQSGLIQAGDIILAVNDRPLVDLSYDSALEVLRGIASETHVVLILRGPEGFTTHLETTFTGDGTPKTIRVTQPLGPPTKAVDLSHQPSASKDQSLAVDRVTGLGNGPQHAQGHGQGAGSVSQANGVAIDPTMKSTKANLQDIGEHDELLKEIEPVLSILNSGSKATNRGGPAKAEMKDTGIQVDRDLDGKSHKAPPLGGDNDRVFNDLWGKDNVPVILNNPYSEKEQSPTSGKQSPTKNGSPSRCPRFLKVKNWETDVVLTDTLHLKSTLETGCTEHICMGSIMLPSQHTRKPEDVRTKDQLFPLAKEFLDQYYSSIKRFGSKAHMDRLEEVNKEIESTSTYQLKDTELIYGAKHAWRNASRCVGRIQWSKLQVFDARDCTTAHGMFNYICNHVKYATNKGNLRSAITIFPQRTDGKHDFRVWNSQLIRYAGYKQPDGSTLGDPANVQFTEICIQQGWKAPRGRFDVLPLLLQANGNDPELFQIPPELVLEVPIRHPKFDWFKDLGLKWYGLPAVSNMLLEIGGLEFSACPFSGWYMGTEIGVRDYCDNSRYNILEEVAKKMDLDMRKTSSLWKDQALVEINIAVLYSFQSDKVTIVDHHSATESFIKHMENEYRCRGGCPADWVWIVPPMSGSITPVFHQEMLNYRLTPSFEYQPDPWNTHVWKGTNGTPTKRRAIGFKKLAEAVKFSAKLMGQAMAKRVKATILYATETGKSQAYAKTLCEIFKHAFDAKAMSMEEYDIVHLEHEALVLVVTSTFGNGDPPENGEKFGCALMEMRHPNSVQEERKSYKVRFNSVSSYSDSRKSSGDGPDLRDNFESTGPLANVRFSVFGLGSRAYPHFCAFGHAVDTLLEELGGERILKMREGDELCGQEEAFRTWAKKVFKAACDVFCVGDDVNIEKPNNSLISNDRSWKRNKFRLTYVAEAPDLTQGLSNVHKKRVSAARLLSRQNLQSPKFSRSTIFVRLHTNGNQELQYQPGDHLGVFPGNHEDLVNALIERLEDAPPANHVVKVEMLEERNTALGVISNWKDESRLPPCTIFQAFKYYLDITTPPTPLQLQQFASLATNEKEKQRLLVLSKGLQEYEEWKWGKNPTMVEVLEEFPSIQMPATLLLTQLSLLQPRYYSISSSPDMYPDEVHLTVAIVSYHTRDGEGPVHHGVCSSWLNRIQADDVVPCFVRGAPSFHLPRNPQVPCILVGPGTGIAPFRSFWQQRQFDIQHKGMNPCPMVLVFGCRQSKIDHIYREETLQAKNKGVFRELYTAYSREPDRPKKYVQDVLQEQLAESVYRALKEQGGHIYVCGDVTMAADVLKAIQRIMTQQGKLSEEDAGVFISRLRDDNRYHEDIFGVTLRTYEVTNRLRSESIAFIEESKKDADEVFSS
- Measurement notes: Inhibition of rat recombinant nNOS expressed in Escherichia coli by hemoglobin capture assay
# log scale: pKi equals minus log10 of the concentration in mol/L

>  <Compound>
Nc1cccc(C[C@@H]2CNC[C@@H]2Oc2cccc(Oc3ccccc3)c2)n1 (racemic)

>  <pKi>
5.52

$$$$
>  <Compound>
Cc1cc(N)nc(C[C@@H]2CNC[C@@H]2OCc2ccc(-c3ccc(F)c(C)c3)cc2)c1 (racemic)

>  <pKi>
6.21

$$$$
>  <Compound>
Cc1cc(N)nc(C[C@@H]2CNC[C@@H]2OCc2ccc(-c3ccc(F)c(Cl)c3)cc2)c1 (racemic)

>  <pKi>
6.12

$$$$
>  <Compound>
Cc1cc(N)nc(C[C@@H]2CNC[C@@H]2OCc2ccc(-c3cccc(Cl)c3)cc2)c1 (racemic)

>  <pKi>
5.92

$$$$

## Task Please give measured pKi of the following entry: Cc1cc(N)nc(C[C@@H]2CNC[C@@H]2OCc2ccc(-c3cccc(F)c3)cc2)c1 (racemic)
## Result 6.12
